- EXPERIMENTAL_DETAILS: The drug is tested on Odoribacter splanchnicus strain: fecal isolate for biotransformation. The drug concentrations were measured before and after a 12-h incubation by liquid-chromatography-coupled mass spectrometry (LC–MS)
- DETAILS: 2 µM
PROPERTY_MEASURED: Bacterial Biotransformation

Solved entries:
COc1ccc(CCN(C)CCCC(C#N)(c2ccc(OC)c(OC)c2)C(C)C)cc1OC (centres undefined) : Compound metabolized
CCN(CC)CCOCCOC(=O)C1(c2ccccc2)CCCC1.O=C(O)CC(O)(CC(=O)O)C(=O)O [CARBETAPENTANE CITRATE] : Compound metabolized
CNNCc1ccc(C(=O)NC(C)C)cc1 [PROCARBAZINE] : Compound NOT metabolized
CCc1nn(CCCN2CCN(c3cccc(Cl)c3)CC2)c(=O)n1CCOc1ccccc1 [NEFAZODONE] : Compound NOT metabolized
CCOC(=O)[C@H](CCc1ccccc1)N[C@H]1CCc2ccccc2N(CC(=O)O)C1=O [BENAZEPRIL] : Compound metabolized

# input molecule: OCCOCCN1CCN(C2=Nc3ccccc3Sc3ccccc32)CC1 [QUETIAPINE] ; wanted: its Bacterial Biotransformation
Compound NOT metabolized

// returns reported Bacterial Biotransformation for input CN(C/C=C/C#CC(C)(C)C)Cc1cccc2ccccc12 [TERBINAFINE]
Compound NOT metabolized

So what does the record say about Bacterial Biotransformation for COc1c2occc2cc2ccc(=O)oc12 [METHOXSALEN] ?
Compound metabolized

What does the data say about its Bacterial Biotransformation? Entry: COc1ccc2cc([C@H](C)C(=O)O)ccc2c1 [NAPROXEN]
Compound NOT metabolized

* * *

- EXPERIMENTAL_DETAILS: The drug is tested on Odoribacter splanchnicus strain: fecal isolate for biotransformation. The drug concentrations were measured before and after a 12-h incubation by liquid-chromatography-coupled mass spectrometry (LC–MS)
- DETAILS: 2 µM
PROPERTY_MEASURED: Bacterial Biotransformation

Worked examples, 5 molecules total:
CCCCCNC(=N)N/N=C/c1c[nH]c2ccc(OC)cc12.O=C(O)/C=C\C(=O)O [TEGASEROD MALEATE] : Compound NOT metabolized
C#C[C@]1(O)CC[C@H]2[C@@H]3CCC4=Cc5oncc5C[C@]4(C)[C@H]3CC[C@@]21C : Compound metabolized
CC(=O)O[C@]1(C(C)=O)CC[C@H]2[C@@H]3C=C(C)C4=CC(=O)CC[C@]4(C)[C@H]3CC[C@@]21C [MEGESTROL ACETATE] : Compound metabolized
CC[C@@]1(O)C(=O)OCc2c1cc1n(c2=O)Cc2cc3c(CN(C)C)c(O)ccc3nc2-1 : Compound NOT metabolized
CCS(=O)(=O)CCn1c([N+](=O)[O-])cnc1C : Compound metabolized

Need Bacterial Biotransformation of "COC1=C(OC)C(=O)C(CCCCCCCCCCO)=C(C)C1=O" , thanks.
Compound metabolized

Please report the recorded Bacterial Biotransformation for "Cc1cn([C@H]2C[C@H](N=[N+]=[N-])[C@@H](CO)O2)c(=O)[nH]c1=O" .
Compound NOT metabolized

State the recorded Bacterial Biotransformation for this entry: "Clc1cccc(Cl)c1N=C1NCCN1"
Compound metabolized

* * *

- EXPERIMENTAL_DETAILS: The drug is tested on Parabacteroides merdae strain: ATCC43184 for biotransformation. The drug concentrations were measured before and after a 12-h incubation by liquid-chromatography-coupled mass spectrometry (LC–MS)
- DETAILS: 2 µM
PROPERTY_MEASURED: Bacterial Biotransformation

C[C@]12C=CC(=O)C=C1CC[C@@H]1[C@@H]2C(=O)C[C@@]2(C)[C@H]1CC[C@]2(O)C(=O)CO [PREDNISONE] : Compound NOT metabolized
CN(C)CCc1c[nH]c2ccc(CS(=O)(=O)N3CCCC3)cc12 [ALMOTRIPTAN] : Compound NOT metabolized
Cc1ccc(-c2nc3ccc(C)cn3c2CC(=O)N(C)C)cc1 [ZOLPIDEM] : Compound NOT metabolized
O=P(O)(O)O.c1ccc(CN(CC2=NCCN2)c2ccccc2)cc1 [ANTAZOLINE PHOSPHATE] : Compound NOT metabolized
NS(=O)(=O)c1cc2c(cc1Cl)N=C(CSCc1ccccc1)NS2(=O)=O [BENZTHIAZIDE] : Compound NOT metabolized

Entry CC12CC3CC(C)(C1)CC(N)(C3)C2 [MEMANTINE] : reported Bacterial Biotransformation = ?
Compound NOT metabolized

Need Bacterial Biotransformation of CCN(CC)CCOCCOC(=O)C1(c2ccccc2)CCCC1.O=C(O)CC(O)(CC(=O)O)C(=O)O [CARBETAPENTANE CITRATE] , thanks.
Compound metabolized
